Test system: Saccharomyces cerevisiae
Assay: protein stability index of tFT-peptide fusion (C-terminal peptide) (PSI (0-1 scale)); higher = more stable (slower turnover)
Conditions: genetic background: cdc34-1; temperature: 37 C
experimentalReadout: protein stability index
In your answer, state the number alone without any accompanying words.

Req: Report protein stability index for GPGTWLFCFVRF tested on Saccharomyces cerevisiae.
Resp: 0.504

Req: Report protein stability index for FVVVGLGLLCLA tested on Saccharomyces cerevisiae.
Resp: 0.492

Req: Report protein stability index for HLRWYITGIVWF tested on Saccharomyces cerevisiae.
Resp: 0.488

Req: Report protein stability index for VGVVVAIGLVRM tested on Saccharomyces cerevisiae.
Resp: 0.508

Req: Report protein stability index for SFLCILIFPFFP tested on Saccharomyces cerevisiae.
Resp: 0.497

Req: Report protein stability index for TSRRPFVLVMWL tested on Saccharomyces cerevisiae.
Resp: 0.504

Req: Report protein stability index for DGSFCLLYMTIA tested on Saccharomyces cerevisiae.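 Note: PSI is a weighted mean of sequencing reads over stability bins, variants kept only with over 10 reads, mCherry proximal and sfGFP distal, peptide attached via GGGS linker.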
Resp: 0.504

# credit: the supplement of paper PMC10724198
